Kindly state IC50 for each of the entries shown.
biological target: PI3K α (Homo sapiens (Human), UniProt P42336); test: PI 3-Kinase (human) HTRF assay, p110α/p85α; assay type: biochemical
Sequence (P42336 whole entry): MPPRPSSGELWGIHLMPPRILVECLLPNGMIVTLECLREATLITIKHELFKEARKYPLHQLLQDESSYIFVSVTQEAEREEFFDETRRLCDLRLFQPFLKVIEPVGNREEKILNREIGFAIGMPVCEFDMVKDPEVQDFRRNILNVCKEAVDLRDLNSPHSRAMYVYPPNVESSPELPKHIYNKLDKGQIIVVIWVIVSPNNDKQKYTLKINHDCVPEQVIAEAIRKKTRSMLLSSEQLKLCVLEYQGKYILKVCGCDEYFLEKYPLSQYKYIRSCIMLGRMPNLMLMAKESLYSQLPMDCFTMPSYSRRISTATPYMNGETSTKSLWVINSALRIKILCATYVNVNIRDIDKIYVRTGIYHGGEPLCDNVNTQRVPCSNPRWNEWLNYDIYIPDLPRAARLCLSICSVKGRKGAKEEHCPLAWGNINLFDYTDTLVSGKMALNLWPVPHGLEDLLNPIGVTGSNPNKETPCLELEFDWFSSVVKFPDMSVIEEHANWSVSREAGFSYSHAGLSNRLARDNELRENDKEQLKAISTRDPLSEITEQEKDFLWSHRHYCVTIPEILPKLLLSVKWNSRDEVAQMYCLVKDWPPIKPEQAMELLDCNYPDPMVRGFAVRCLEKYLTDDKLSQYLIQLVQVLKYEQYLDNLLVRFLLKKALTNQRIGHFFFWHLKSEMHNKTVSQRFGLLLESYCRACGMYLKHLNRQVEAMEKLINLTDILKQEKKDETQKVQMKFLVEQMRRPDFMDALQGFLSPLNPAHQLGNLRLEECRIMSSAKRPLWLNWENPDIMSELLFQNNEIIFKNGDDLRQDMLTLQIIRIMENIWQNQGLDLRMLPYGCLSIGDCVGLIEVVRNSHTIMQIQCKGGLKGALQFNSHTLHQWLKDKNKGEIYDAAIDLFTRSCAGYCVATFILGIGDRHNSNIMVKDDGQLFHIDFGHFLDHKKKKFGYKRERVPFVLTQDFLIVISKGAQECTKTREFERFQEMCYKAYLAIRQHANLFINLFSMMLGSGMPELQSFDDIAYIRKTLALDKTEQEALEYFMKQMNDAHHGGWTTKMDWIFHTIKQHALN
Sequence (P27986 whole entry partner): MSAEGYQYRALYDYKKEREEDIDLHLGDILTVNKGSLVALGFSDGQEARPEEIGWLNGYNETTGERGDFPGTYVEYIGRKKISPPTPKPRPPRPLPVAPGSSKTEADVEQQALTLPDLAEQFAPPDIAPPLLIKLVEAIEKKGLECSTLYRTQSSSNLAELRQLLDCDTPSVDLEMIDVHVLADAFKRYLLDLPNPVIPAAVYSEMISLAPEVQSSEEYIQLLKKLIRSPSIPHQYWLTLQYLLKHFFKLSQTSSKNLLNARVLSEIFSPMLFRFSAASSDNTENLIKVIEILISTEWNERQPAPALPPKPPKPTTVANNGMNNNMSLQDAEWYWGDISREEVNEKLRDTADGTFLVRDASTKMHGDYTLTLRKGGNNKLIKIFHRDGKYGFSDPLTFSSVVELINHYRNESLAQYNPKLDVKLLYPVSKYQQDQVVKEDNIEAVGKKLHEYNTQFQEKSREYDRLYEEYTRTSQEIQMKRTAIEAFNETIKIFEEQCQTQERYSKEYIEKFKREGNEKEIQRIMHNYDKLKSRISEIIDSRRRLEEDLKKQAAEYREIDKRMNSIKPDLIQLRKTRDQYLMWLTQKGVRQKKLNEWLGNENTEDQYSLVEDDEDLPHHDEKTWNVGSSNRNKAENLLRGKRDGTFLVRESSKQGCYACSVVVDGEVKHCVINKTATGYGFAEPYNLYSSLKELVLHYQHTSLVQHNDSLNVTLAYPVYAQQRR

Prompt line: Observed IC50 on PI3K α (Homo sapiens (Human), UniProt P42336) for Nc1nc2cc(-c3ccc4ncc(N5CC(N6CCCC6)C5)nc4c3)ccc2o1 , please.
Response line: < 1000 nM

Prompt line: // query: Nc1nc2cc(-c3ccc4ncc(N5CCC(n6ccnc6)CC5)nc4c3)ccc2o1
Response line: < 100 nM

Prompt line: Try the compound Cc1cc2oc(N)nc2cc1-c1ccc2ncc(N3CC(N4CCOCC4)C3)nc2c1
Response line: < 10000 nM

Prompt line: Would you mind doing CC(C)(N)C(=O)N1CCN(c2cnc3ccc(-c4ccc5oc(N)nc5c4)nc3n2)CC1 as well?
Response line: < 100 nM

Prompt line: Please do the same for Nc1nc2cc(-c3ccc4ncn(C5CCOCC5)c(=O)c4c3)ccc2o1 as well.
Response line: < 1000 nM

Prompt line: And the next one, CN1CCC(Nc2ncnc3ccc(-c4ccc5oc(N)nc5c4)cc23)CC1 ?
Response line: < 100 nM

Prompt line: Thanks! And Nc1nc2cc(-c3ccn4ncc(C(=O)N5CCOCC5)c4c3)ccc2o1 ?
Response line: < 1000 nM

Prompt line: One more compound: CN1CCN(c2cc(-c3cnc4ccc(-c5ccc6oc(N)nc6c5)cn34)ccn2)CC1
Response line: < 100 nM

Prompt line: Then this compound: Nc1nc2ccc(-c3ccc4nc(N)sc4c3)cc2o1
Response line: < 1000 nM

Prompt line: Another compound to look at: Nc1nc2cc(-c3ccc4ncc(N5CC(n6cccn6)C5)nc4c3)ccc2o1
Response line: < 100 nM

Prompt line: Consider next the compound CN1CCN(CCNC(=O)c2cnc3ccc(-c4ccc5oc(N)nc5c4)cn23)CC1 in the same way.
Response line: < 100 nM

Prompt line: Again, but for CN1CCN(C(=O)c2cnc3ccc(-c4ccc5oc(N)nc5c4)cn23)CC1 [drawing 570]
Response line: < 1000 nM

Prompt line: Moving on to the next compound: Nc1nc2cc(-c3ccc4ncc(N5CCN(CC6CC6)CC5=O)nc4c3)ccc2o1
Response line: < 10000 nM

Prompt line: Also need Nc1nc2cc(-c3ccc4ncc(N5CC(C(=O)N6CCN(C7CC7)CC6)C5)nc4c3)ccc2o1 , thanks.
Response line: < 100 nM

Prompt line: How about this compound: Cc1ccn(C2CN(c3cnc4ccc(-c5ccc6oc(N)nc6c5)cc4n3)C2)n1
Response line: < 100 nM

Prompt line: Try this compound next: CC(C)N1CCN(C(=O)C2CN(c3cnc4ccc(-c5ccc6oc(N)nc6c5)cc4n3)C2)CC1
Response line: < 100 nM

Prompt line: Follow-up item: Nc1nc2cc(-c3ccc4ncc(C(=O)N5CC[C@H](F)C5)n4c3)ccc2o1
Response line: < 100 nM

Prompt line: Likewise for O=C(c1cnc2ccc(-c3cncc(S(=O)(=O)Nc4ccccc4)c3)cn12)N1CCOCC1 ?
Response line: < 10000 nM

Prompt line: Let us now turn to COc1nc(-c2ccc3oc(N)nc3c2)cnc1N
Response line: < 1000 nM

Prompt line: Next: C[C@@H]1CCCN1C(=O)c1cnc2ccc(-c3ccc4oc(N)nc4c3)cn12
Response line: < 100 nM
